testTarget: HIV-1 YU-2 gp120 (HIV-1 (YU-2), UniProt P35961)
assayProcedure: SPR
quantityMeasured: IC50

INSERT INTO measurements (binder, result) VALUES
  ('Fab m18 S54A (HCDR2) (Fab, V domains shown) VH: VQLLESGPGVVKPSETLSLTCTVSGASVNNYYWTWVRQPPGKGLEWIGNVYDAGDTNYNPSLSSRLSLSMDTSKNQFSLRLSSVTAADTATYYCARYHRHFIRGPLSFDYWGRGTLVTVSS VL: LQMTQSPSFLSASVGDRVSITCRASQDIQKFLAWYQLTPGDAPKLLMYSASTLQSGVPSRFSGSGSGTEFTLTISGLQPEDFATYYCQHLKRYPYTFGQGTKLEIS', '> 1000 nM');

Request: State its IC50: Fab m18 H96A (HCDR3) (Fab, V domains shown) VH: VQLLESGPGVVKPSETLSLTCTVSGASVNNYYWTWVRQPPGKGLEWIGNVYDSGDTNYNPSLSSRLSLSMDTSKNQFSLRLSSVTAADTATYYCARYARHFIRGPLSFDYWGRGTLVTVSS VL: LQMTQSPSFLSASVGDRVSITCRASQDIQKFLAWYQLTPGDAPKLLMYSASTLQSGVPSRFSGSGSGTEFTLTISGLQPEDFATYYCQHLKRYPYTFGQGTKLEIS
Response: > 500 nM

Request: Hello, please tell me recorded IC50 for this one: Fab m18 R100aA (HCDR3) (Fab, V domains shown) VH: VQLLESGPGVVKPSETLSLTCTVSGASVNNYYWTWVRQPPGKGLEWIGNVYDSGDTNYNPSLSSRLSLSMDTSKNQFSLRLSSVTAADTATYYCARYHRHFIAGPLSFDYWGRGTLVTVSS VL: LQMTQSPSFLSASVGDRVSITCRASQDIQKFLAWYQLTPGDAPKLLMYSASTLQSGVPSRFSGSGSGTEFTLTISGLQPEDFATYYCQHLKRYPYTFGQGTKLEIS
Response: > 500 nM

Every entry's value here was drawn from paper PMC3499988.
